- experiment: Cytotoxicity TC50 in K-562
- Format: cell-based
- stated-conditions: human, k-562 cells; compound alone
quantity-name: CC50 (µM)
One number for each entry, in µM.

[Q] Look at this molecule and give its reported CC50. CO[C@H]1C[C@@]2(O)/C(CO)=C/C=C/[C@H](C)C/C(C)=C/C[C@@H]3C[C@@H](C[C@]4(CC[C@H](C)[C@@H](C)O4)O3)OC(=O)[C@@H]2C=C1C
[A] 8

---

Please go through the items and note down their IC50.
- system-tested: pCDRI (ABC) efflux pump in S. cerevisiae YEM-1 (Candida albicans, UniProt P43071)
- Sequence (P43071 whole entry): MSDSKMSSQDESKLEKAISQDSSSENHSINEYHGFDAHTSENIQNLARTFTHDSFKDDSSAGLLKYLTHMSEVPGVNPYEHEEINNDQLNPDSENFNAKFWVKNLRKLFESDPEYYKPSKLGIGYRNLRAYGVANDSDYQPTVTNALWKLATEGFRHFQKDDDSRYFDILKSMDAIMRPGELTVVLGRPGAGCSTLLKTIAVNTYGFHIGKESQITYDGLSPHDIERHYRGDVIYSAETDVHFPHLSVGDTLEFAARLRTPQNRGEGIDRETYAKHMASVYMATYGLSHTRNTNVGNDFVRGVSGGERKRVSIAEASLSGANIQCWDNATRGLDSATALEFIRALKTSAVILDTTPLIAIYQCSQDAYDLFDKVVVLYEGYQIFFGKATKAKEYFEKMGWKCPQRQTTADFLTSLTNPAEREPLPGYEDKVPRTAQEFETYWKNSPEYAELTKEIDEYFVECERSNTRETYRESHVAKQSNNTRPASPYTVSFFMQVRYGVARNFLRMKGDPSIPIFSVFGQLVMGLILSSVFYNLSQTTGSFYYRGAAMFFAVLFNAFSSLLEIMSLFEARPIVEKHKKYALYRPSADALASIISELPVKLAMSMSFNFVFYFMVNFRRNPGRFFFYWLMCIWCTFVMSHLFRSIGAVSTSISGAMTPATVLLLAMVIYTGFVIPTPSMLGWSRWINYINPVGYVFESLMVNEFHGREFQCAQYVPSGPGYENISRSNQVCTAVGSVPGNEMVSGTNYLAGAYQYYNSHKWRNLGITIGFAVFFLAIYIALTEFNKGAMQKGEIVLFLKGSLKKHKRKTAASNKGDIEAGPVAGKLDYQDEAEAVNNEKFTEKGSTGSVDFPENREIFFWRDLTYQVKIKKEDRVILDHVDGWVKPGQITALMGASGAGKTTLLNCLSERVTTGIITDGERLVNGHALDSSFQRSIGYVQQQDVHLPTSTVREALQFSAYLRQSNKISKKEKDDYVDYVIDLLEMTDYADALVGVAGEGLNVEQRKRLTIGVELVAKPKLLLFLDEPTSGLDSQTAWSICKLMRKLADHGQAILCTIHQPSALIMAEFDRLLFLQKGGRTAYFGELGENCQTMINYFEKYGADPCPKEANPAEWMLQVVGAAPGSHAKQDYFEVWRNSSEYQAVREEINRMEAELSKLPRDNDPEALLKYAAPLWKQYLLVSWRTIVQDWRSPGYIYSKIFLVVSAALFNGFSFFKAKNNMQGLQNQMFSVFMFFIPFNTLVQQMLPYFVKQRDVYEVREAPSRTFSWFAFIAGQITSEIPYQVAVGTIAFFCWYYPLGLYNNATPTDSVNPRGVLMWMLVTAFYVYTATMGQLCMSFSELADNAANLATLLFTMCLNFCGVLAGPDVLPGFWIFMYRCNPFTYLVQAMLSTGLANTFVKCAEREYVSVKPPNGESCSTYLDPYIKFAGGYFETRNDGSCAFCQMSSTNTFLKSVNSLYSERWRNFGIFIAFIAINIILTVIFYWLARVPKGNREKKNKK
- experiment: cell-based
- Type: cell-based, C. albicans
One number for each entry, in nM.

Here is how some compounds turned out for IC50.
structure-smiles | unit-text | IC50
CO[C@@H]1C(C)=C[C@H]2C(=O)O[C@H]3C[C@@H](C/C=C(\C)C[C@@H](C)/C=C/C=C4\CO[C@H]1[C@@]42O)O[C@@]1(CC[C@H](C)[C@@H](C)O1)C3 | nM | 230
CCC(CC)C(=O)OCC1=C[C@H]2C(=O)O[C@H]3C[C@@H](C/C=C(\C)C[C@@H](C)/C=C/C=C4\CO[C@H]([C@@H]1O)[C@@]42O)O[C@@]1(CC[C@H](C)[C@@H](C)O1)C3 | nM | 1560
CC[C@H]1O[C@]2(CC[C@@H]1C)C[C@@H]1C[C@@H](C/C=C(\C)C[C@@H](C)/C=C/C=C3\CO[C@@H]4[C@H](O)C(C)=C[C@@H](C(=O)O1)[C@]34O)O2 | nM | 921

Continue with the compound presented below.
[Q] Look at this compound and give its reported IC50. CC1=C[C@H]2C(=O)O[C@H]3C[C@@H](C/C=C(\C)C[C@@H](C)/C=C/C=C4\CO[C@H]([C@@H]1O)[C@@]42O)O[C@]1(C3)C[C@H](O)[C@H](C)[C@@H](/C(C)=C/C(C)C)O1
[A] 3260

---

Please go through the items and note down their MIC of compound in the absence of fluconazole (−).
- System: YEM 30 C. albicans wt
- experiment: FEPI MIC with/without 1/8 fluconazole MIC at 24 hrs (Table 11)
- Assay type: cell-based
- stated-conditions: YEM 30; 24 hrs; 80% inhibition

Batch: MIC of compound in the absence of fluconazole (−) for all items listed.
1. CCC(C)C1OC2(CC3CC(CC=C(C)C(O)C(C)C=CC=C4COC5C(O)C(C)=CC(C(=O)O3)C45O)O2)CC(O)C1C (centres unmarked)
2. C/C1=C\C[C@@H]2CC(C[C@]3(CC[C@H](C)[C@@H](C)O3)O2)OC(=O)c2cc(C)c(O)cc2/C(C)=C/C=C/[C@H](C)C1
3. C/C1=C\C[C@@H]2C[C@@H](C[C@]3(CC[C@H](C)[C@@H](C)O3)O2)OC(=O)[C@@H]2C=C(COC(=O)Cc3ccccc3)[C@@H](O)[C@H]3OC/C(=C\C=C\[C@H](C)C1)[C@]32O
4. CO[C@@H]1C(C)=C[C@H]2C(=O)O[C@H]3C[C@@H](C/C=C(\C)C[C@@H](C)/C=C/C=C4\CO[C@H]1[C@@]42O)O[C@]1(C3)C[C@H](O)[C@H](C)[C@@H](/C(C)=C/C(C)C)O1
5. CC1=C[C@H]2C(=O)O[C@H]3C[C@@H](C/C=C(\C)C[C@@H](C)/C=C/C=C4\CO[C@H]([C@@H]1O)[C@@]42O)O[C@@]1(CC[C@H](C)[C@@H](C)O1)C3

[A]
["> 64 mg/L", "> 64 mg/L", "> 64 mg/L", "> 64 mg/L", "> 64 mg/L"]

---

- system-tested: pCDR2 (ABC) efflux pump in S. cerevisiae YEM-37 (Candida albicans)
- Sequence (P78595 whole entry): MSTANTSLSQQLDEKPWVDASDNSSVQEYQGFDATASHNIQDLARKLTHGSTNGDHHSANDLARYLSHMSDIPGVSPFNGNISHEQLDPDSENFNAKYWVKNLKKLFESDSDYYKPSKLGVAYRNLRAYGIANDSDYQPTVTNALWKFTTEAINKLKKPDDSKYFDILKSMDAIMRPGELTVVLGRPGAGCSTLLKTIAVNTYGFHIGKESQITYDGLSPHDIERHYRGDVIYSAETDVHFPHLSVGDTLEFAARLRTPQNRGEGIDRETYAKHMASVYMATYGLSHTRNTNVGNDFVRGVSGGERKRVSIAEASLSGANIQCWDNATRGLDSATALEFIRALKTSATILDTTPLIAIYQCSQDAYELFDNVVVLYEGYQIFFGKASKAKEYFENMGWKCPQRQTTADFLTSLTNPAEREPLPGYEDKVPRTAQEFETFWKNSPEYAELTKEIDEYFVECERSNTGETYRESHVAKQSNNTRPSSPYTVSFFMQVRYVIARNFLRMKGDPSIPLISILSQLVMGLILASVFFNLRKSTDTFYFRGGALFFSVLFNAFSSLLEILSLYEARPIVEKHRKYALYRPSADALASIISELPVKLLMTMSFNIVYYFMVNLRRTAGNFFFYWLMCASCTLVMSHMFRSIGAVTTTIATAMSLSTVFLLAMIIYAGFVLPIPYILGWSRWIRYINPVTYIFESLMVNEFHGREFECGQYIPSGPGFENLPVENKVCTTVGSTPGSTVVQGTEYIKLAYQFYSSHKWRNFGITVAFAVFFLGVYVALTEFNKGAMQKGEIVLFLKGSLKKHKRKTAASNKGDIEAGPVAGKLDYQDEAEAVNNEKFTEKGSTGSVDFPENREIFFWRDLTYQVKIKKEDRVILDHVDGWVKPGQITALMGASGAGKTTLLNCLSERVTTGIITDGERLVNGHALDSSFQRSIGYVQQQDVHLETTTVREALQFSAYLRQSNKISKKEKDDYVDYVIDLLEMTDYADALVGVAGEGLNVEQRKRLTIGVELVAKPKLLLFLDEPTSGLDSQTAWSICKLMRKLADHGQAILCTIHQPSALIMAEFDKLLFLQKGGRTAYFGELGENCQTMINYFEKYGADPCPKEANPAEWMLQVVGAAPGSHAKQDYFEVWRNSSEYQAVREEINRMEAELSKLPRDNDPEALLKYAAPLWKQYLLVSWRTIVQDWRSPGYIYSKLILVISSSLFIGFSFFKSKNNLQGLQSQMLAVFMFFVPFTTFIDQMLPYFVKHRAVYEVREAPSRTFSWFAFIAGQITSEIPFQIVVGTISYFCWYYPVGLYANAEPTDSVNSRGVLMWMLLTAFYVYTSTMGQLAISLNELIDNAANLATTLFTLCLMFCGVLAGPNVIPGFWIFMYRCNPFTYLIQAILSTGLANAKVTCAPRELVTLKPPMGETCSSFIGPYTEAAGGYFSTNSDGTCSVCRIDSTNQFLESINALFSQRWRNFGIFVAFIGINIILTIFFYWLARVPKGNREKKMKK
- experiment: cell-based
- Assay type: cell-based, C. albicans
- stated-conditions: read-out: FEPIhalf (concentration needed to reduce activity of efflux pump by 50%); YEM-37 pCDR2; fluconazole fixed at FLUhalf 1
Please go through the items and note down their IC50.
Numbers only, in µM.

structure-smiles | unit-text | measured-result
CO[C@@H]1C(C)=C[C@H]2C(=O)O[C@H]3C[C@@H](C/C=C(\C)C[C@@H](C)/C=C/C=C4\CO[C@H]1[C@@]42O)O[C@]1(C3)C[C@H](O)[C@H](C)[C@@H](/C(C)=C/C(C)C)O1 | µM | 0.399

Continue with the molecule presented below.
[Q] Please provide the recorded IC50 for CO[C@H]1C[C@@]2(O)/C(CO)=C/C=C/[C@H](C)C/C(C)=C/C[C@@H]3C[C@@H](C[C@]4(CC[C@H](C)[C@@H](C)O4)O3)OC(=O)[C@@H]2C=C1C , tested on pCDR2 (ABC) efflux pump in S. cerevisiae YEM-37 (Candida albicans).
[A] 3.67

---

- system-tested: pCgCDR (ABC) efflux pump in S. cerevisiae YEM-39 (Candida glabrata)
- Sequence (Q6FK23 whole entry): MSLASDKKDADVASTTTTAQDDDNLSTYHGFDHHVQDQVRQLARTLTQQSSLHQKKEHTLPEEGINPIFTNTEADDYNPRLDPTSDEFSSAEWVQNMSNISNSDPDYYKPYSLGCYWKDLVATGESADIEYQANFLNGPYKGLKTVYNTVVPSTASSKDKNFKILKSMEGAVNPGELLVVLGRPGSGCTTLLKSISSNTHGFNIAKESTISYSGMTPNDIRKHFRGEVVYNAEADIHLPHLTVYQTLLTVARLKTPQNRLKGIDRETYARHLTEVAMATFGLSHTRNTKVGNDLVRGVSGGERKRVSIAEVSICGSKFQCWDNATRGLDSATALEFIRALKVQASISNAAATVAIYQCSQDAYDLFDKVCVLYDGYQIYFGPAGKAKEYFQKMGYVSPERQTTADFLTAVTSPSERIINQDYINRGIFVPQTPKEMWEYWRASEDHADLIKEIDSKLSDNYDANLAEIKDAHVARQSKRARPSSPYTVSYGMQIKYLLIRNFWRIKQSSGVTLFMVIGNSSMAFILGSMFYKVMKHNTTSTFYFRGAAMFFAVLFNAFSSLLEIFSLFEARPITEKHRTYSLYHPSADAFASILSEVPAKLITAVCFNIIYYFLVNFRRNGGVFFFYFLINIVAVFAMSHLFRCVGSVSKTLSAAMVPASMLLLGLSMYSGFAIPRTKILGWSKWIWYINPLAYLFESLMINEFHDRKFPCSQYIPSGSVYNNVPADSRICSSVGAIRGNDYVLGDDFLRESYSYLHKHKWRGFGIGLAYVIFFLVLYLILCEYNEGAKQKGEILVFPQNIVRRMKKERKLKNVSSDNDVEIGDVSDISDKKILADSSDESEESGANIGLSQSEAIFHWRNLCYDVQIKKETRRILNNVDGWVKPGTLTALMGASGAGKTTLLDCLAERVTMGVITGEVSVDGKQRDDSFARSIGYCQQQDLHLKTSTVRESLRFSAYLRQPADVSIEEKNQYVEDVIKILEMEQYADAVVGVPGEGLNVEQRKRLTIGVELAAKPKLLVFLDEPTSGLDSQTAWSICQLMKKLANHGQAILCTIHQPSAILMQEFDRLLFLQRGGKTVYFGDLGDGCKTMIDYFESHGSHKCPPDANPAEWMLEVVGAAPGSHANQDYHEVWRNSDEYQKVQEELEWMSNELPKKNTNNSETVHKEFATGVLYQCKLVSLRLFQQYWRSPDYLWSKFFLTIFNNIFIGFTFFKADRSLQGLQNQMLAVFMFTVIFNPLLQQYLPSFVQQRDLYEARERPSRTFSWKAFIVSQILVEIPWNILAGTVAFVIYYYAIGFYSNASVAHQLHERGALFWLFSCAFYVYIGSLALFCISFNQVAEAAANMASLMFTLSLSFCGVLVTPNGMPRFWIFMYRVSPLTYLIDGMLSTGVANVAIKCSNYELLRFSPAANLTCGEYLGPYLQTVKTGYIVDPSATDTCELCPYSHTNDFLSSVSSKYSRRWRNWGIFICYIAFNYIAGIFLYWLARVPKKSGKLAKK
- experiment: cell-based
- Assay type: cell-based, C. glabrata
pIC50: −log10 of the molar value.
We use 5 as the dividing line for pIC50: on or above the line is Yes, below is No.

A selection of reference data follows.
molecule | group-label
CC1=C[C@H]2C(=O)O[C@H]3C[C@@H](C/C=C(\C)C[C@@H](C)/C=C/C=C4\CO[C@H]([C@@H]1O)[C@@]42O)O[C@]1(C3)C[C@H](O)[C@H](C)[C@@H](/C(C)=C/C(C)C)O1 [Compound 15, LL-F2849α (nemedectinα)] | Yes
CC1=C[C@H]2C(=O)O[C@H]3C[C@@H](C/C=C(\C)C[C@@H](C)/C=C/C=C4\CO[C@H]([C@@H]1O)[C@@]42O)O[C@@]1(CC[C@H](C)[C@@H](C)O1)C3 [Compound 3, Milbemycin α1] | No
CC[C@H]1O[C@]2(CC[C@@H]1C)C[C@@H]1C[C@@H](C/C=C(\C)C[C@@H](C)/C=C/C=C3\CO[C@@H]4[C@H](O)C(C)=C[C@@H](C(=O)O1)[C@]34O)O2 [Compound 7, Milbemycin α3] | No

[Q] Given the entry C/C1=C\C[C@@H]2C[C@@H](C[C@]3(CC[C@H](C)[C@@H](C)O3)O2)OC(=O)[C@@H]2C=C(COC(=O)c3ccc[nH]3)[C@@H](O)[C@H]3OC/C(=C\C=C\[C@H](C)C1)[C@]32O [Compound 11, Milbemycin α9] , answer whether its pIC50 meets or surpasses 5.
[A] Yes

[Q] Param item: CCC(CC)C(=O)OCC1=C[C@H]2C(=O)O[C@H]3C[C@@H](C/C=C(\C)C[C@@H](C)/C=C/C=C4\CO[C@H]([C@@H]1O)[C@@]42O)O[C@@]1(CC[C@H](C)[C@@H](C)O1)C3 [Compound 21, 4a-O-(2-ethyl)butyryl milbemycin α1]
[A] No

---

- Tested on: Aspergillus fumigatus
- experiment: FEPI MICs in combination with 1/4 the azole's MIC (Table 12)
- Type: cell-based
- stated-conditions: fluconazole 32 μg/ml (1/4 MIC); 80% inhibition
quantity-name: FEPI MIC with fluconazole, 80% Inh
Answers are plain numbers.

molecule | FEPI MIC with fluconazole, 80% Inh
CCCCC(C)C(=O)OC1C(C)C(CC)OC2(CC3CC(CC=C(C)CC(C)C=CC=C4COC5C(O)C(C)=CC(C(=O)O3)C45O)O2)C1O (centres unmarked) | 4

Batch: FEPI MIC with fluconazole, 80% Inh for all items listed.
1. C/C1=C\C[C@@H]2C[C@@H](C[C@]3(CC[C@H](C)[C@@H](C)O3)O2)OC(=O)[C@@H]2C=C(COC(=O)C(C)C)[C@@H](O)[C@H]3OC/C(=C\C=C\[C@H](C)C1)[C@]32O
2. C/C1=C\C[C@@H]2C[C@@H](C[C@]3(CC[C@H](C)[C@@H](C)O3)O2)OC(=O)[C@@H]2C=C(COC(=O)Cc3ccccc3)[C@@H](O)[C@H]3OC/C(=C\C=C\[C@H](C)C1)[C@]32O
3. CO[C@H]1C[C@@]2(O)/C(C=O)=C/C=C/[C@H](C)C/C(C)=C/C[C@@H]3C[C@@H](C[C@]4(CC[C@H](C)[C@@H](C)O4)O3)OC(=O)[C@@H]2C=C1C

[A]
[4, 2, 64]

---

- Test system: Aspergillus fumigatus
- experiment: FEPI MICs in combination with 1/4 the azole's MIC (Table 12)
- Assay type: cell-based
- stated-conditions: ketoconazole 4 μg/ml (1/4 MIC); 60% inhibition
quantity-name: FEPI MIC with ketoconazole, 60% Inh

Here is how some compounds turned out for FEPI MIC with ketoconazole, 60% Inh.
compound | FEPI MIC with ketoconazole, 60% Inh
CC[C@H](C)[C@H]1O[C@]2(CC[C@@H]1C)C[C@@H]1C[C@@H](C/C=C(\C)[C@@H](O[C@H]3C[C@H](OC)[C@@H](O[C@H]4C[C@H](OC)[C@@H](O)[C@H](C)O4)[C@H](C)O3)[C@@H](C)/C=C/C=C3\CO[C@@H]4[C@H](O)C(C)=C[C@@H](C(=O)O1)[C@]34O)O2 | >64
CO[C@@H]1C(C)=C[C@H]2C(=O)O[C@H]3C[C@@H](C/C=C(\C)C[C@@H](C)/C=C/C=C4\CO[C@H]1[C@@]42O)O[C@]1(C3)C[C@H](O)[C@H](C)[C@@H](/C(C)=C/C(C)C)O1 | 0.125
CO[C@H]1C[C@@]2(O)/C(C=O)=C/C=C/[C@H](C)C/C(C)=C/C[C@@H]3C[C@@H](C[C@]4(CC[C@H](C)[C@@H](C)O4)O3)OC(=O)[C@@H]2C=C1C | ≦0.063
CC1=C[C@H]2C(=O)O[C@H]3C[C@@H](C/C=C(\C)C[C@@H](C)/C=C/C=C4\CO[C@H]([C@@H]1O)[C@@]42O)O[C@]1(C3)C[C@H](O)[C@H](C)[C@@H](/C(C)=C/C(C)C)O1 | 0.25
CC1=C[C@H]2C(=O)O[C@H]3C[C@@H](C/C=C(\C)C[C@@H](C)/C=C/C=C4\CO[C@H]([C@@H]1O)[C@@]42O)O[C@@]1(CC[C@H](C)[C@@H](C(C)C)O1)C3 | 0.125
CCCCC(C)C(=O)OC1[C@@H](O)[C@]2(C[C@@H]3C[C@@H](C/C=C(\C)C[C@@H](C)/C=C/C=C4\CO[C@@H]5[C@H](OC)C(C)=CC(C(=O)O3)[C@]45O)O2)O[C@H](C)[C@H]1C (stereo partly drawn) | ≦0.063
CO[C@H]1C[C@@]2(O)/C(CO)=C/C=C/[C@H](C)C/C(C)=C/C[C@@H]3C[C@@H](C[C@]4(CC[C@H](C)[C@@H](C)O4)O3)OC(=O)[C@@H]2C=C1C | ≦0.063
C/C1=C\C[C@@H]2C[C@@H](C[C@]3(CC[C@H](C)[C@@H](C)O3)O2)OC(=O)[C@@H]2C=C(COC(=O)C(C)C)[C@@H](O)[C@H]3OC/C(=C\C=C\[C@H](C)C1)[C@]32O | ≦0.063
CCCCC(C)C(=O)OC1C(C)C(C)OC2(CC3CC(C/C=C(\C)CC(C)/C=C/C=C4\COC5C(O)C(C)=CC(C(=O)O3)C45O)O2)C1O (stereo not drawn) | ≦0.063
CCC(C)C1OC2(CC3CC(CC=C(C)C(OC4CC(OC)C(O)C(C)O4)C(C)C=CC=C4COC5C(O)C(C)=CC(C(=O)O3)C45O)O2)CC(O)C1C (stereo not drawn) [Compound 23, Avermectin B2a monoglycoside] | ≦0.063

Batch: FEPI MIC with ketoconazole, 60% Inh for all items listed.
1. CC1=C[C@H]2C(=O)O[C@H]3C[C@@H](C/C=C(\C)C[C@@H](C)/C=C/C=C4\CO[C@H]([C@@H]1O)[C@@]42O)O[C@@]1(CC[C@H](C)[C@@H](C)O1)C3
2. CC[C@H]1O[C@]2(CC[C@@H]1C)C[C@@H]1C[C@@H](C/C=C(\C)C[C@@H](C)/C=C/C=C3\CO[C@@H]4[C@H](O)C(C)=C[C@@H](C(=O)O1)[C@]34O)O2
3. CCC(CC)C(=O)OCC1=C[C@H]2C(=O)O[C@H]3C[C@@H](C/C=C(\C)C[C@@H](C)/C=C/C=C4\CO[C@H]([C@@H]1O)[C@@]42O)O[C@@]1(CC[C@H](C)[C@@H](C)O1)C3
4. CO[C@@H]1C(C)=C[C@H]2C(=O)O[C@H]3C[C@@H](C/C=C(\C)C[C@@H](C)/C=C/C=C4\CO[C@H]1[C@@]42O)O[C@@]1(CC[C@H](C)[C@@H](C)O1)C3
5. CCCCC(C)C(=O)OC1C(C)C(CC)OC2(CC3CC(CC=C(C)CC(C)C=CC=C4COC5C(O)C(C)=CC(C(=O)O3)C45O)O2)C1O (stereo not drawn)
6. C/C1=C\C[C@@H]2CC(C[C@]3(CC[C@H](C)[C@@H](C)O3)O2)OC(=O)c2cc(C)c(O)cc2/C(C)=C/C=C/[C@H](C)C1
7. C/C1=C\C[C@@H]2C[C@@H](C[C@]3(CC[C@H](C)[C@@H](C)O3)O2)OC(=O)[C@@H]2C=C(COC(=O)Cc3ccccc3)[C@@H](O)[C@H]3OC/C(=C\C=C\[C@H](C)C1)[C@]32O

[A]
["≦0.063", "≦0.063", "≦0.063", 0.5, 0.25, 0.5, "≦0.063"]

[Q] Look at this compound and give its reported FEPI MIC with ketoconazole, 60% Inh. C/C1=C\C[C@@H]2C[C@@H](C[C@]3(CC[C@H](C)[C@@H](C)O3)O2)OC(=O)[C@@H]2C=C(COC(=O)c3ccc[nH]3)[C@@H](O)[C@H]3OC/C(=C\C=C\[C@H](C)C1)[C@]32O
[A] 0.125
